Tested on: MCF7
experimentDescription: Antiproliferative activity against human MCF7 cells after 44 hrs by MTT assay
Assay type: functional, cell-based
conditionsUsed: MCF7, 44 h
measurementName: IC50 (µM)

>>> experimentalresult("O=C(CN1CCCCC1)Nc1ccc2oc3ccc(NC(=O)CN4CCCCC4)cc3c(=O)c2c1")
83.9
>>> experimentalresult("O=C(CN1CCCC1)Nc1ccc2oc3ccc(NC(=O)CN4CCCC4)cc3c(=O)c2c1")
34.9
>>> experimentalresult("CCN(CC)CC(=O)Nc1ccc2oc3ccc(NC(=O)CN(CC)CC)cc3c(=O)c2c1")
26.6
>>> experimentalresult("CN(C)CC(=O)Nc1ccc2oc3ccc(NC(=O)CN(C)C)cc3c(=O)c2c1")
23

---

Tested on: HeLa
experimentDescription: Antiproliferative activity against human HeLa cells after 44 hrs by MTT assay
Format: functional, cell-based
measurementName: IC50

>>> experimentalresult("CCN(CC)CC(=O)Nc1ccc2oc3ccc(NC(=O)CN(CC)CC)cc3c(=O)c2c1")
"20.4 µM"
>>> experimentalresult("O=C(CN1CCCCC1)Nc1ccc2oc3ccc(NC(=O)CN4CCCCC4)cc3c(=O)c2c1")
"> 100 µM"
>>> experimentalresult("O=C(CN1CCOCC1)Nc1ccc2oc3ccc(NC(=O)CN4CCOCC4)cc3c(=O)c2c1")
"> 100 µM"
>>> experimentalresult("O=C(CN1CCCC1)Nc1ccc2oc3ccc(NC(=O)CN4CCCC4)cc3c(=O)c2c1")
"48.2 µM"
>>> experimentalresult("CN(C)CC(=O)Nc1ccc2oc3ccc(NC(=O)CN(C)C)cc3c(=O)c2c1")
"13.2 µM"

---

# reported pIC50; entries follow
Tested on: A549
experimentDescription: Antiproliferative activity against human A549 cells after 44 hrs by MTT assay
Format: functional, cell-based
conditionsUsed: A549, 44 h
pIC50: −log10 of the molar value.
measurementName: pIC50

>>> experimentalresult("CCN(CC)CC(=O)Nc1ccc2oc3ccc(NC(=O)CN(CC)CC)cc3c(=O)c2c1")
4.70
>>> experimentalresult("O=C(CN1CCOCC1)Nc1ccc2oc3ccc(NC(=O)CN4CCOCC4)cc3c(=O)c2c1")
4.09
>>> experimentalresult("O=C(CN1CCCC1)Nc1ccc2oc3ccc(NC(=O)CN4CCCC4)cc3c(=O)c2c1")
4.67
>>> experimentalresult("CN(C)CC(=O)Nc1ccc2oc3ccc(NC(=O)CN(C)C)cc3c(=O)c2c1")
4.73
